This listing pairs binders with measured Affinity increase.
biological target: T1, AFP158/HLA-A*02:01 complex (human); assay: SPR, fold vs AS170036 VL1VH1;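 note: crude scFv muteins immobilised on a sensor chip, peptide–MHC complex passed over at several concentrations, binding then buffer-driven dissociation, KD estimated from on- and off-rates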
T1 construct: flowed as analyte in SPR
Numeric only. Scale: fold

Below, 2 binders whose answers are already recorded.
| binder | value-kind | numeric-readout |
| --- | --- | --- |
| AS170036 VL1VH1-56N98F108D (scFv, also called 50-AS170036 VL1VH1-56N98F108D) scFv: QSALTQPRSVSGSPGQSVTISCAGTSSDVGSENYVSWYQQHPGKAPKLMIYQVNKRASGVPDRFSGSKSGNTASLTISGLQAEDEADYYCASYRSSDFNIVFGGGTKLTVLGGGGSGGGGSGGGGSEVQLVESGGGLVQPGGSLRLSCAASGFTFSSYAMSWVRQAPGKGLEWVSTINSGTNSPYYADSVKGRFTISRDNSKNTLYLQMNSLRAEDTAVYYCAKNFFDGSWFLDPPAMDYWGQGTLVTVSSHHHHHH | Affinity increase | 36.4 |
| AS170036 VL1VH1-57M98F108A (scFv, also called 76-AS170036 VL1VH1-57M98F108A) scFv: QSALTQPRSVSGSPGQSVTISCAGTSSDVGSENYVSWYQQHPGKAPKLMIYQVNKRASGVPDRFSGSKSGNTASLTISGLQAEDEADYYCASYRSSDFNIVFGGGTKLTVLGGGGSGGGGSGGGGSEVQLVESGGGLVQPGGSLRLSCAASGFTFSSYAMSWVRQAPGKGLEWVSTINSGTGMPYYADSVKGRFTISRDNSKNTLYLQMNSLRAEDTAVYYCAKNFFDGSWFLAPPAMDYWGQGTLVTVSSHHHHHH | Affinity increase | 43.4 |

Enquiry: For AS170036 VL1VH1-57H98Q108D (scFv, also called 65-AS170036 VL1VH1-57H98Q108D) scFv: QSALTQPRSVSGSPGQSVTISCAGTSSDVGSENYVSWYQQHPGKAPKLMIYQVNKRASGVPDRFSGSKSGNTASLTISGLQAEDEADYYCASYRSSDQNIVFGGGTKLTVLGGGGSGGGGSGGGGSEVQLVESGGGLVQPGGSLRLSCAASGFTFSSYAMSWVRQAPGKGLEWVSTINSGTGHPYYADSVKGRFTISRDNSKNTLYLQMNSLRAEDTAVYYCAKNFFDGSWFLDPPAMDYWGQGTLVTVSSHHHHHH , write its Affinity increase.
Return: 90.7
